molecular target: CYP450 (Homo sapiens, UniProt P04798+P05177+P05181+P08684+P10632+P10635+P11509+P11712+P13584+P20813+P20815+P20853+P24462+P24903+P33260+P33261+P51589+P78329+P98187+Q02928+Q08477+Q16678+Q16696+Q5TCH4+Q6VVX0+Q7Z449+Q8TAV3+Q96SQ9+Q9HB55); experiment: Inhibition of CYP450 (unknown origin); type: ADME, protein assay
pIC50: −log10 of the molar value.
ENDPOINT NAME: pIC50

QUERY: Input "C[C@H](C(=O)Nc1ccc(F)cc1)C12CC(NC(=O)c3ccc(F)c(F)c3)(C1)C2" , output reported pIC50.
RESULT: < 4.30
